- system: T1, cynomolgus monkey B7-H1 expressed on cells (cynomolgus monkey, UniProt G7PSE7 19-290)
- T1 construct: whole, on cells; also called cyno B7-H1; cynomologus B7-H1
- T1 sequence (G7PSE7 entry or part of it): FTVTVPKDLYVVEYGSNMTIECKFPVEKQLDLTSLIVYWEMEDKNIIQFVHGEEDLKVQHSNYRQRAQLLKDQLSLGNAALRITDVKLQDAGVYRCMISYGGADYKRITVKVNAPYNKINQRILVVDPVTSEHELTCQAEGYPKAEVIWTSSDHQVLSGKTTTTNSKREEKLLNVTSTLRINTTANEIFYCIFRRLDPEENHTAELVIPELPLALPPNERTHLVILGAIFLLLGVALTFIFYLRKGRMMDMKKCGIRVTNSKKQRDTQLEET
- assayNotes: FMAT, hybridoma supernatant, 293T cells expressing cynomolgus monkey B7-H1
- Method: Immediately after plating, 10 μl/well of hybridoma supernatants were added and plates incubated for 1.5 hr at room temperature.
readoutKind: FL1

>>> testresult("2.14H9 (antibody, IgG2, V domains shown, also called mAb 2.14H9) VH: EVQLVESGGGLVQPGGSLRLSCAASGFTFSRYWMSWVRQAPGKGLEWVANIKQDGSEKYYVDSVKGRFTISRDNAKNSLYLQMNSLRAEDTAVYYCAREGGWFGELAFDYWGQGTLVTVSS VL: EIVLTQSPGTLSLSPGERATLSCRASQRVSSSYLAWYQQKPGQAPRLLIYDASSRATGIPDRFSGSGSGTDFTLTISRLEPEDFAVYYCQQYGSLPWTFGQGTEVEIK")
6780
>>> testresult("2.9D10 (antibody, V domains shown, Tested as hybridoma supernatant or purified antibody; also called mAb 2.9D10) VH: EVQLVESGGGLVQPGGSLRLSCAASGFTFSSYWMSWVRQAPGKGLEWVANIKQDGGEQYYVDSVKGRFTISRDNAKNSLYLQMNSLRAEDTAVYYCARDWNYGYYDMDVWGQGTTVTVSS VL: EIVLTQSPGTLSLSPGERATLSCRASQSVSSNYLAWFQQKPGQAPRLLIFGTSSRATGIPDRFSGSGSGTDFTLTISRLEPEDFAVYYCQQYGSSIFTFGPGTKVDIK")
5530
>>> testresult("3.18G1 (antibody, V domains shown, also called mAb 3.18G1) VH: EVQLLESGGDLVQPGGSLRLSCAASGFTFNSYAMSWVRQAPGKGLEWVSTISGSGGFTFSADSVKGRFTISRDNSKNTLFLQMNSLRVEDSAVYSCAKVLVGFNNGCWDYWGQGTLVTVSS VL: SYVLTQPPSVSVAPGQTARITCGGNNIGSKSVHWYQQKPGQAPVLVVYDDSDRPSGIPERFSGSNSGNTATLTISRVEAGDEADYYCQVWDSSNDHVVFGGGTKLTVL")
10300
